Reference source: patent US20050058639A1

Exercise: for every item that follows, state its recorded ELISA OD.
- measurement-target: T1, recombinant mouse JE/MCP-1 (mouse, UniProt P10148 24-148)
- T1 construct: also called rmJE/MCP-1
- T1 sequence (P10148 24-148 limits assumed): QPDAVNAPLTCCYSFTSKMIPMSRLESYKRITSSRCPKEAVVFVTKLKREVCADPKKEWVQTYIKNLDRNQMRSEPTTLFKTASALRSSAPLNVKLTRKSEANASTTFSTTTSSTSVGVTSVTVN
- protocol-notes: ELISA, coated antigen

### Prompt Given the binder anti-MCP-1 mAb 3.2 (antibody, V domains shown, also called 3.2 (neat)) VH: QVQLVQSGAEVKKPGASVKVSCKVSGYTLSELSMHWVRQAPGKGLEWMGGFDPEDGEIIHAQKFQGRVTMTEDTSTDTAYMELSSLRSEDTAVYYCATGDFWSGYYLDWWGQGTLVTVSS VL: EIVMMQSPATLSVSPGERATLSCRASQSVNSNLAWYQQKPGQAPRLLINGASTRATGIPARFSGSGSGTEFTLTISSLQSEDFAIYYCQQYNDWPTFTFGGGTKVEINR , what is its reported ELISA OD?
### Response 0.059 OD450

### Prompt Given the binder anti-MCP-1 mAb 5.1 (antibody, V domains shown) VH: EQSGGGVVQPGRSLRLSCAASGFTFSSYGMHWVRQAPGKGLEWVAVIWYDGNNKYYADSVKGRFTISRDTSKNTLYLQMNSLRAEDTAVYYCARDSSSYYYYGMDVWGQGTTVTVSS VL: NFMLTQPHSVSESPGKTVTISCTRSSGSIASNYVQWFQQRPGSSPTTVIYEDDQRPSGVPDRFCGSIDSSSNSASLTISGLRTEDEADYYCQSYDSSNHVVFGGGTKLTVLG , what is its reported ELISA OD?
### Response 0.044 OD450
